Target: human PI 3-Kγ (Homo sapiens)
Construct: Residues 38-1102 of human PI 3-Kγ are subcloned
Sequence (P48736 38-1102): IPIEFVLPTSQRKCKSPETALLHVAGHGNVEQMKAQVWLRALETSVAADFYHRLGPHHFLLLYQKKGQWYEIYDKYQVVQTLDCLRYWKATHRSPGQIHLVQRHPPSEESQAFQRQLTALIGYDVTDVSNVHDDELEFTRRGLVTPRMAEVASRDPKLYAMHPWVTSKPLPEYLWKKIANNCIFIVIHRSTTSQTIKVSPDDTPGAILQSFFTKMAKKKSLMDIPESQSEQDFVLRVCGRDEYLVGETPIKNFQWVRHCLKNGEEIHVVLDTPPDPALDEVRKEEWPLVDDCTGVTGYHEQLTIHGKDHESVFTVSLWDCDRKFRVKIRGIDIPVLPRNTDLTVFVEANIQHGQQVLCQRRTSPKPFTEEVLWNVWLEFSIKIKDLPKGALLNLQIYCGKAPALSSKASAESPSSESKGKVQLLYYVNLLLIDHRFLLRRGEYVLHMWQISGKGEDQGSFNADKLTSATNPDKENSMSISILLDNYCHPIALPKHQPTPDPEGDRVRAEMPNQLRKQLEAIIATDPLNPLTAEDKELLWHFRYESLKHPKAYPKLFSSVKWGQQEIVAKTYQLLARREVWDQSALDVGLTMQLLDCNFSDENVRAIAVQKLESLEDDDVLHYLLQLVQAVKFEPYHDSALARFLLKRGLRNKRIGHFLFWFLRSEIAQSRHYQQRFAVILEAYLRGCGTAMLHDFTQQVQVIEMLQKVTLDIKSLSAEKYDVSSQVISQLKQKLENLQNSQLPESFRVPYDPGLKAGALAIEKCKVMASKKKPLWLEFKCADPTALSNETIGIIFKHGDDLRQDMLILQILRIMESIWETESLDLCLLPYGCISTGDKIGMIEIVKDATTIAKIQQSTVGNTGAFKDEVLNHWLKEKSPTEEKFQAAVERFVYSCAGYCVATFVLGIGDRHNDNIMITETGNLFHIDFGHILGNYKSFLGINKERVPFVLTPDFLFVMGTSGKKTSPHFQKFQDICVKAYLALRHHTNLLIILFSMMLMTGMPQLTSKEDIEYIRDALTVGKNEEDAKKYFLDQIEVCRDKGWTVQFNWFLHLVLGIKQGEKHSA
Assay: in vitro kinase assay (Scintillation Proximity Assay): transfer of terminal phosphate of ATP to phosphatidylinositol
Conditions: recombinant GST-p110γ, 12.5 μM ATP assay mix, 60 minutes room temperature
readout_name: IC50 (nM)
Provide the reading as a plain figure in nM.

>  <chemical_structure>
Cc1nc(N)ncc1-c1ccc(C(F)(F)F)c(S(=O)(=O)N[C@@H]2CCC[C@@H]2O)c1

>  <units>
nM

>  <IC50>
108

$$$$
>  <chemical_structure>
Cc1nc(N)ncc1-c1ccc(Cl)c(S(=O)(=O)N[C@H]2CC[C@@H](NC(=O)OC(C)(C)C)CC2)c1

>  <units>
nM

>  <IC50>
305

$$$$
>  <chemical_structure>
Cc1nc(N)ncc1-c1ccc(Cl)c(S(=O)(=O)N2CC(O)C2)c1

>  <units>
nM

>  <IC50>
135

$$$$

Lookup result for `Cc1nc(N)ncc1-c1ccc(Cl)c(NS(=O)(=O)c2ccccc2)c1` ; measured IC50: 50

Lookup result for `Cc1nc(N)ncc1-c1ccc(Cl)c(NS(=O)(=O)c2cccc(Cl)c2)c1` ; measured IC50: 16

Lookup result for `Cc1nc(N)ncc1-c1ccc(Cl)c(S(=O)(=O)NC2CC2)c1` ; measured IC50: 219

Lookup result for `Cc1nc(N)ncc1-c1ccnc(C(C)(C)C)n1` ; measured IC50: 223

Lookup result for `Cc1nc(N)ncc1-c1ccc(Cl)c(S(=O)(=O)N(C)C)c1` ; measured IC50: 239

Lookup result for `Cc1nc(N)ncc1-c1ccc(Cl)c(S(=O)(=O)Nc2ccccc2)c1` ; measured IC50: 4
